Hey, just so you know, these numbers are from PubChem BioAssay (NCI).

# System: HS 578T breast
# ASSAY PROCEDURE: NCI tumour cell line growth inhibition, 48 h
The following compounds are shown together with reported GI50 values.

# COMPOUND, GI50
data = [
    ("C=CCC1(O)c2cccc(NCCO)c2C(=O)c2c(NCCO)cccc21", "> 100 µM"),
    ("COc1ccc(Cl)cc1NC(=O)C(Br)C(Br)C(=O)O (stereo unspecified)", "43.9 µM"),
    ("C=CC1CC12C(=O)C1OC2(C)C2C(=O)c3c(O)ccc(O)c3C(=O)C12 (stereo unspecified)", "7.44 µM"),
    ("COc1ccc2c(c1)C(c1ccccc1Cl)=Nc1c(n[nH]c1C)N2", "3.43 µM"),
    ("NS(=O)(=O)c1cccc(N=Cc2c(O)[nH]c3ccccc23)c1", "> 25 µM"),
]

Now look at this entry.
What GI50 value was documented for this compound, `C=C1C(=O)O[C@H]2[C@H]1CC/C(COC(=O)CSCC(=O)OC/C1=C/CC[C@@]3(C)O[C@H]3[C@H]3OC(=O)C(=C)[C@@H]3CC1)=C\CC[C@@]1(C)O[C@@H]21` ?
3.52 µM

---

# System: CAKI-1 renal
# ASSAY PROCEDURE: NCI tumour cell line growth inhibition, 48 h
Where a SMILES comes first, the peptide text is derived from it. The star is where a group is joined. Boc = CC(C)(C)OC(=O)*; OBn = c1ccc(CO*)cc1
ATTRIBUTE MEASURED: TGI

Some solved entries appear below for comparison.
# MOLECULE, MEASURED
records = [
    ("Nc1ccccc1N/C=C\\C(=O)C(Cl)(Cl)Cl", "51.3 µM"),
    ("CSc1ccc2c3c(n(C[C@H](O)CO)c(=O)c2c1)-c1ccccc1C3=O", "5.74 µM"),
    ("NC(N)=NNC(=O)CCCCCCCC(=O)NN=C(N)N", "> 100 µM"),
    ("COc1cc2c(cc1O)CC13CCC(=O)N1CCc1cc(OC)c(O)c-2c13 (stereo unspecified)", "> 68.1 µM"),
    ("O=C1COc2ccc([N+](=O)[O-])cc2C(=O)C1", "> 10 µM"),
]

Find the recorded TGI belonging to COc1cc2c[n+](C)c3c4ccccc4ccc3c2cc1OC (tested in a mixture with another compound) and report it.
> 83 µM

Consider the molecule Cc1ccc2c(O)c(O)cc(NC(C)CCCN)c2n1 (stereo unspecified) and give its measured TGI.
> 54.7 µM

Need TGI of CN1CC(C(=O)C2C(=O)c3ccccc3C2=O)C(=O)C(=O)C(C(=O)C2C(=O)c3ccccc3C2=O)C1 (stereo unspecified) , thanks.
> 100 µM

Query: TGI; subject: `O=c1cc(N2CCCC2)[nH]c(=O)n1-c1cccc(C(F)(F)F)c1`
> 100 µM

Entry under review: CC(NC(=O)C(NC(=O)OC(C)(C)C)C(C)C)C(=O)N1CCCC1C(=O)NCC(=O)NC(C(=O)NCC(=O)OCc1ccccc1)C(C)C (stereo unspecified) (Boc-VAPGVG-OBn; configuration not given here) . Reported TGI?
> 100 µM

Given `CN(C)Cc1cc(O)c(O)c(CN(C)C)c1` , state its recorded TGI.
> 100 µM

Field request: TGI | item: `COc1cccc(/C=C/c2cnc3ccccc3n2)c1OC`
> 100 µM

Returns the measured TGI for the input molecule. Input: `CC(=O)OC(OC(C)=O)n1cc(C=O)c2ccccc21`
> 100 µM

Could you tell me which TGI is on file for `Cc1ccc(SC2=CC(=O)c3nc4ccccc4c4ccnc2c34)cc1` ?
63.8 µM
